assay: AUC (0 to infinity) in human plasma at 5 mg administered as single dose; assay type: ADME, cell-free; set-up: dose 5 mg, time infinity
valueType: AUC(0-inf) (ng·h/mL)
Numeric answer only, unit ng·h/mL assumed.

Prompt: Quick check: AUC(0-inf) of Cc1ccc(CNC(=O)c2nn(-c3ccc(F)cc3)c(CC[C@@H](O)C[C@@H](O)CC(=O)O)c2C(C)C)cc1 ?
Completion: 434

----------
experiment: Cmax in human plasma at 120 mg administered as single dose; assay type: ADME, organism-based; design: dose 120 mg
valueType: Cmax (ng/mL)
Numeric answer only, unit ng/mL assumed.

Prompt: Quick check: Cmax of O=C([O-])C[C@H](O)C[C@H](O)CCn1c(-c2ccc(F)cc2)nc(C(=O)NCc2cccc(F)c2)c1C1CC1.[Na+] ?
Completion: 3.31

----------
assay: Cmax in human plasma at 5 mg administered as single dose; type: ADME, organism-based; set-up: dose 5 mg
valueType: Cmax (ng/mL)
Numeric answer only, unit ng/mL assumed.

Prompt: Quick check: Cmax of Cc1ccc(CNC(=O)c2nn(-c3ccc(F)cc3)c(CC[C@@H](O)C[C@@H](O)CC(=O)O)c2C(C)C)cc1 ?
Completion: 196

----------
assay: Lipophilicity, log D of the compound at pH 7.4 by shake flask method; type: physicochemical; conditions: buffer
valueType: logD
Please reply with the number alone, leaving off any unit.

Prompt: Quick check: logD of Cc1ccc(CNC(=O)c2nc(-c3ccc(F)cc3)n(CC[C@@H](O)C[C@@H](O)CC(=O)[O-])c2C2CC2)cc1.[Na+] ?
Completion: 0.45

Prompt: Quick check: logD of COc1cccc(CNC(=O)c2nc(-c3ccc(F)cc3)n(CC[C@@H](O)C[C@@H](O)CC(=O)[O-])c2C2CC2)c1.[Na+] ?
Completion: 0.11

Prompt: Quick check: logD of Cc1ccc(CNC(=O)c2nc(-c3ccc(F)cc3)n(CC[C@@H](O)C[C@@H](O)CC(=O)[O-])c2C2CC2)cc1F.[Na+] ?
Completion: 0.69

Prompt: Quick check: logD of Cc1ccc(CNC(=O)c2nn(-c3ccc(F)cc3)c(CC[C@@H](O)C[C@@H](O)CC(=O)O)c2C(C)C)cc1 ?
Completion: 0.24

----------
For each record, write down the corresponding fraction unbound at 0.5 ug/ml.
experiment: Fraction unbound in dog plasma at 0.5 ug/ml; assay type: ADME, cell-free, Canis lupus familiaris
Please reply with the number alone, leaving off any unit.

Prompt: Quick check: fraction unbound at 0.5 ug/ml of Cc1ccc(CNC(=O)c2nn(-c3ccc(F)cc3)c(CC[C@@H](O)C[C@@H](O)CC(=O)O)c2C(C)C)cc1 ?
Completion: 0.032

Prompt: Quick check: fraction unbound at 0.5 ug/ml of O=C([O-])C[C@H](O)C[C@H](O)CCn1c(-c2ccc(F)cc2)nc(C(=O)NCc2cccc(F)c2)c1C1CC1.[Na+] ?
Completion: 0.43

----------
For each record, write down the corresponding clearance.
assay: Systemic plasma clearance in rat at 1 mg/kg, iv; assay type: ADME, organism-based; design: dose 1 mg/kg, route intravenous
Numeric answer only, unit mL/min/kg assumed.

Prompt: Quick check: clearance of Cc1ccc(CNC(=O)c2nn(-c3ccc(F)cc3)c(CC[C@@H](O)C[C@@H](O)CC(=O)O)c2C(C)C)cc1 ?
Completion: 27

Prompt: Quick check: clearance of O=C([O-])C[C@H](O)C[C@H](O)CCn1c(-c2ccc(F)cc2)nc(C(=O)NCc2cccc(F)c2)c1C1CC1.[Na+] ?
Completion: 39
